Experiment: Stability of analytes in rat plasma QC samples under storage conditions
Type: physicochemical
Conditions: post-treatment storage in autosampler; medium QC level (49.92–50.06 ng/ml), n = 6
Stability during 24 h at 4°C, RE reference
Return type: number; implicit unit %.

Solved entries:
C[C@]12CC[C@H](O)C[C@@]1(O)CC[C@@H]1[C@@H]2CC[C@]2(C)[C@@H](c3ccc(=O)oc3)[C@@H](O)[C@H]3O[C@]132 7.3
C[C@]12CC[C@H](O)C[C@H]1CC[C@@H]1[C@@H]2[C@H](O)C[C@]2(C)[C@@H](c3ccc(=O)oc3)CC[C@]12O 10.9
C[C@]12CC[C@H](O)C[C@H]1CC[C@@H]1[C@@H]2[C@H](O)C(=O)[C@]2(C)[C@@H](c3ccc(=O)oc3)CC[C@]12O −5.3
C[C@]12CC[C@H](O)C[C@H]1CC[C@@H]1[C@@H]2CC[C@]2(C)[C@@H](c3ccc(=O)oc3)CC[C@]12O −8.6
CC(=O)O[C@H]1[C@H]2O[C@]23[C@@H]2CC[C@@H]4C[C@@H](O)CC[C@]4(C)[C@H]2CC[C@]3(C)[C@H]1c1ccc(=O)oc1 −3.2
C[C@]12CC[C@H]3[C@@H](CC[C@]4(O)C[C@@H](O)CC[C@]34C=O)[C@@]1(O)CC[C@@H]2c1ccc(=O)oc1 −4.7

So for `CC(=O)O[C@H]1[C@H]2O[C@]23[C@@H]2CC[C@]4(O)C[C@@H](O)CC[C@]4(C)[C@H]2CC[C@]3(C)[C@H]1c1ccc(=O)oc1` , the logged Stability during 24 h at 4°C, RE turned out to be 7.7

====

Test: Pharmacokinetic study in rats after oral administration of cinobufacini capsule (UPLC-MS/MS of plasma)
Format: in vivo, rat
Settings: male, Sprague-Dawley, in vivo; rat plasma, oral cinobufacini capsule 1.8 g/kg (medium), mean ± SD, n = 6; read-out: CLz/F (converted)
assayMetric: CL/F (mL/min/kg)
Return type: number; implicit unit mL/min/kg.

C[C@]12CC[C@H](O)C[C@H]1CC[C@@H]1[C@@H]2CC[C@]2(C)[C@@H](c3ccc(=O)oc3)CC[C@]12O 21.5

So for `C[C@]12CC[C@H](O)C[C@@]1(O)CC[C@@H]1[C@@H]2CC[C@]2(C)[C@@H](c3ccc(=O)oc3)[C@@H](O)[C@H]3O[C@]132` , the logged CL/F turned out to be 50.3

So for `C[C@]12CC[C@H](O)C[C@H]1CC[C@@H]1[C@@H]2C(=O)[C@@H](O)[C@]2(C)[C@@H](c3ccc(=O)oc3)CC[C@]12O` , the logged CL/F turned out to be 30.8

====

Test: Pharmacokinetic study in rats after oral administration of cinobufacini capsule (UPLC-MS/MS of plasma)
Type: in vivo, rat
Settings: male, Sprague-Dawley, in vivo; rat plasma, oral cinobufacini capsule 1.8 g/kg (medium), mean ± SD, n = 6
assayMetric: log10 of Cmax (log10 of the value in ng/mL)
Short version: log10 scale, Cmax, ng/mL.

Solved entries:
C[C@]12CC[C@H](O)C[C@H]1CC[C@@H]1[C@@H]2[C@H](O)C[C@]2(C)[C@@H](c3ccc(=O)oc3)CC[C@]12O 1.33
C[C@]12CC[C@H](O)C[C@H]1CC[C@@H]1[C@@H]2C(=O)[C@@H](O)[C@]2(C)[C@@H](c3ccc(=O)oc3)CC[C@]12O 1.39
C[C@]12CC[C@H](O)C[C@H]1CC[C@@H]1[C@@H]2[C@H](O)C(=O)[C@]2(C)[C@@H](c3ccc(=O)oc3)CC[C@]12O 1.56
C[C@]12CC[C@H]3[C@@H](CC[C@]4(O)C[C@@H](O)CC[C@]34C=O)[C@@]1(O)CC[C@@H]2c1ccc(=O)oc1 0.92

Next up:
So for `C[C@]12CC[C@H](O)C[C@@]1(O)CC[C@@H]1[C@@H]2CC[C@]2(C)[C@@H](c3ccc(=O)oc3)CC[C@]12O` , the logged log10 of Cmax turned out to be 2.04

Data provenance: paper PMC9343874
